Tested on: Bacillus subtilis
experiment_notes: Antimicrobial activity against Bacillus subtilis ATCC 6633 at 100 ug/ml after 24 hrs by agar well diffusion assay
Type: functional
condition_description: ATCC 6633, 24 h, read-out: DIZ
Give zone of inhibition at 100 µg/mL for every item shown.

Entry Cc1ccc(-n2nnc(C3=NN(C(=S)Nc4ccccc4)C(c4ccc(F)cc4)C3)c2C)cc1 (stereo not drawn) ; zone of inhibition at 100 µg/mL = 27 mm

The reported value for Cc1ccc(-n2nnc(C3=NN(c4nc(-c5ccc(Cl)cc5)cs4)C(c4ccc(F)cc4)C3)c2C)cc1 (stereo not drawn) in terms of zone of inhibition at 100 µg/mL is 30 mm

Lookup result for Cc1ccc(-n2nnc(C3=NN(C(=S)NC(=O)c4ccccc4)C(c4ccc(N5CCCCC5)cc4)C3)c2C)cc1 (stereo not drawn) ; measured zone of inhibition at 100 µg/mL: 24 mm

Summary for this compound, Cc1ccc(-n2nnc(C3=NNC(c4ccccc4)C3)c2C)cc1 (stereo not drawn) : zone of inhibition at 100 µg/mL is 32 mm

// Cc1ccc(-n2nnc(C3=NN(c4nc(-c5ccccc5)cs4)C(c4ccc(F)cc4)C3)c2C)cc1 (stereo not drawn) : zone of inhibition at 100 µg/mL value = 24 mm

zone of inhibition at 100 µg/mL in this record for Cc1ccc(-n2nnc(C(=O)/C=C/c3ccc(C#N)cc3)c2C)cc1 : 28 mm

Please fill in: zone of inhibition at 100 µg/mL reported for Cc1ccc(-n2nnc(C3=NNC(c4ccc(N5CCCCC5)cc4)C3)c2C)cc1 (stereo not drawn) = 16 mm

GET /value?item= Cc1ccc(-n2nnc(C3=NN(C(=S)Nc4ccccc4)C(c4ccccc4)C3)c2C)cc1 (stereo not drawn) &field=zone of inhibition at 100 µg/mL returns 26 mm
